These measurements were taken from the supplement of paper PMC10567573.

B1: PPP2R2B (parent)
chain: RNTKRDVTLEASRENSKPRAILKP

Variants of: B1
Assay: protein stability index of a GFP-peptide fusion (GPS, HEK-293T) (PSI 1-6); higher = more stable;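 also: lentivirally expressed fusions sorted by FACS into six bins by GFP to DsRed ratio, PSI derived from sequencing read proportions per bin multiplied by bin number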
Conditions: c terminus: a fixed tail appended
Catalogue of protein stability index values

{"variant.label": "P24H", "protein stability index": 4.41}
{"variant.label": "L9D", "protein stability index": 5.09}
{"variant.label": "K23Q", "protein stability index": 4.89}
{"variant.label": "R5P", "protein stability index": 4.79}
{"variant.label": "T3G", "protein stability index": 4.29}
{"variant.label": "K23W", "protein stability index": 4.33}
{"variant.label": "V7Q", "protein stability index": 4.8}
{"variant.label": "A11V", "protein stability index": 4.49}
{"variant.label": "A20M", "protein stability index": 4.65}
{"variant.label": "N15F", "protein stability index": 4.66}
{"variant.label": "K4S", "protein stability index": 4.92}
{"variant.label": "K23F", "protein stability index": 3.48}
{"variant.label": "T3K", "protein stability index": 4.91}
{"variant.label": "L9W", "protein stability index": 4.34}
{"variant.label": "K4C", "protein stability index": 3.8}
{"variant.label": "D6V", "protein stability index": 4.08}
{"variant.label": "V7W", "protein stability index": 4.61}
{"variant.label": "S16M", "protein stability index": 4.53}
{"variant.label": "L9N", "protein stability index": 4.22}
{"variant.label": "T8N", "protein stability index": 4.98}
{"variant.label": "K4Y", "protein stability index": 4.42}
{"variant.label": "T3M", "protein stability index": 4.35}
{"variant.label": "S12L", "protein stability index": 3.96}
{"variant.label": "K23M", "protein stability index": 3.94}
{"variant.label": "D6C", "protein stability index": 4.29}
{"variant.label": "I21K", "protein stability index": 4.83}
{"variant.label": "L22K", "protein stability index": 5.11}
{"variant.label": "K17R", "protein stability index": 4.38}
{"variant.label": "A11Y", "protein stability index": 3.92}
{"variant.label": "A20E", "protein stability index": 5}
{"variant.label": "P18C", "protein stability index": 4.25}
{"variant.label": "R19Q", "protein stability index": 4.75}
{"variant.label": "P18Q", "protein stability index": 4.76}
{"variant.label": "K23D", "protein stability index": 4.79}
{"variant.label": "L22W", "protein stability index": 3.98}
{"variant.label": "K4R", "protein stability index": 4.54}
{"variant.label": "P24R", "protein stability index": 4.13}
{"variant.label": "L22M", "protein stability index": 4.33}
{"variant.label": "K17V", "protein stability index": 4.66}
{"variant.label": "N15V", "protein stability index": 4.45}
{"variant.label": "E14C", "protein stability index": 3.9}
{"variant.label": "K4E", "protein stability index": 4.6}
{"variant.label": "A11D", "protein stability index": 4.78}
{"variant.label": "D6K", "protein stability index": 4.45}
{"variant.label": "R5I", "protein stability index": 4.19}
{"variant.label": "A20C", "protein stability index": 4.17}
{"variant.label": "D6L", "protein stability index": 3.94}
{"variant.label": "R19Y", "protein stability index": 4.21}
{"variant.label": "V7T", "protein stability index": 4.81}
{"variant.label": "K23R", "protein stability index": 4.04}
{"variant.label": "R13G", "protein stability index": 5.06}
{"variant.label": "S16D", "protein stability index": 4.58}
{"variant.label": "E14Y", "protein stability index": 3.67}
{"variant.label": "S16E", "protein stability index": 4.75}
{"variant.label": "A11T", "protein stability index": 4.44}
{"variant.label": "L9F", "protein stability index": 4.11}
{"variant.label": "A11S", "protein stability index": 4.67}
{"variant.label": "A20D", "protein stability index": 4.64}
{"variant.label": "R19E", "protein stability index": 5.04}
{"variant.label": "E10T", "protein stability index": 3.7}
{"variant.label": "P18A", "protein stability index": 4.52}
{"variant.label": "S16P", "protein stability index": 4.96}
{"variant.label": "T3D", "protein stability index": 4.81}
{"variant.label": "R19P", "protein stability index": 4.79}
{"variant.label": "K23Y", "protein stability index": 4.38}
{"variant.label": "I21R", "protein stability index": 5.35}
{"variant.label": "K17Y", "protein stability index": 4.14}
{"variant.label": "A20V", "protein stability index": 4.38}
{"variant.label": "E10V", "protein stability index": 4.35}
{"variant.label": "N2P", "protein stability index": 4.31}
{"variant.label": "P18I", "protein stability index": 4.27}
{"variant.label": "K17M", "protein stability index": 4.69}
{"variant.label": "L22Q", "protein stability index": 4.92}
{"variant.label": "V7E", "protein stability index": 4.46}
{"variant.label": "L9M", "protein stability index": 4.84}
{"variant.label": "K23G", "protein stability index": 4.48}
{"variant.label": "R5H", "protein stability index": 4.85}
{"variant.label": "E10M", "protein stability index": 3.83}
{"variant.label": "T3H", "protein stability index": 4.4}
{"variant.label": "N15L", "protein stability index": 4.53}
{"variant.label": "N2M", "protein stability index": 4.4}
